targetSystem: T1, Human CD137 ECD (human)
T1 construct: entry includes C-terminal His-tag and biotin acceptor peptide; also called human CD137 extracellular domain; 4-1BB
T1 sequence (chain, as listed by the source limits assumed): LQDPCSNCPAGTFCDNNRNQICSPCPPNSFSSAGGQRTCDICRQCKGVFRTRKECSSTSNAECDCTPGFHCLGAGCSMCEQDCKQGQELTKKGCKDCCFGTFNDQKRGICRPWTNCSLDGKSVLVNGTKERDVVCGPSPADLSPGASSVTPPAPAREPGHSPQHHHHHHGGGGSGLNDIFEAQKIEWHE
protocol: Biacore SPR, vs parent H183/L072
reportedMetric: fold change of affinity (fold)
Report the value in fold with no unit label.

[
  {
    "binder": "H183/L072 VL F96D (antibody, name in Kabat numbering, V domains shown, Dual-Ig) VH: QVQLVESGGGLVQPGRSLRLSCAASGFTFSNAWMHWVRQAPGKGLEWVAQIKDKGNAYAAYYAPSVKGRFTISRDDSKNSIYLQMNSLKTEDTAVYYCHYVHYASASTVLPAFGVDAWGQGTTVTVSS VL: DIVMTQSPLSLPVTPGEPASISCQASQELVHMNRNTYLHWYQQKPGQAPRLLIYKVSNRFPGVPDRFSGSGSGTDFTLKISRVEAEDVGVYYCAQGTSVPDTFGQGTKLEIK",
    "readoutValue": 0
  }
]

[Q] Identify measured fold change of affinity associated with H183/L072 VL Y32H (antibody, name in Kabat numbering, V domains shown, Dual-Ig) VH: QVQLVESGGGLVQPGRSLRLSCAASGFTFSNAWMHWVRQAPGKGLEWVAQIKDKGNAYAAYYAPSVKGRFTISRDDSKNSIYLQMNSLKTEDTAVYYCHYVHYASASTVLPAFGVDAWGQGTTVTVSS VL: DIVMTQSPLSLPVTPGEPASISCQASQELVHMNRNTHLHWYQQKPGQAPRLLIYKVSNRFPGVPDRFSGSGSGTDFTLKISRVEAEDVGVYYCAQGTSVPFTFGQGTKLEIK
[A] 0.1
